- ASSAY: Systemic exposure and pharmacokinetics after single oral gavage dose of 200 mg/kg in fasted male SD rats
- Assay type: in vivo, Sprague Dawley (SD) rats
- DETAILS: male, Sprague-Dawley, rat, plasma, po, fasted male SD rats, single PO dose 200 mg/kg, mean ± SD, read-out: Tmax
- Procedure: Two studies were conducted in order to compare the systemic exposure and pharmacokinetics (PK) of microcrystalline MBX-2982 and salt forms of MBX-2982 in fasted male Sprague Dawley (SD) rats following single oral gavage (PO) doses of 200 mg/kg. Four salt foms of MBX-2982 were investigate in the studies. […] Plasma concentration-time data for individual animals were analyzed using WinNonlin software (Professional, version 5.0.1; Pharsight Corp.). […]
Kindly state Tmax for each of the entries shown.
Answers are plain numbers, in h.

[[record]]
compound = "CCc1cnc(N2CCC(c3nc(COc4ccc(-n5cnnn5)cc4)cs3)CC2)nc1"
measurement_name = "Tmax"
reading = 5.88


## Task For the compound CCc1cnc(N2CCC(c3nc(COc4ccc(-n5cnnn5)cc4)cs3)CC2)nc1.Cl [HCl Salt Form I] , give its measured Tmax value.
## Result 7.25

Origin of the recorded values: patent US9150567B2
